Where do the numbers come from? From patent US9682976B2.

test system: PKC mediated IL-2 production; assay: IL-2 ELISA, human primary T cell, anti CD3+CD28+; type: cell-based; settings: Homo sapiens, T-cell, 24 h, human primary T cells stimulated with αCD3 and αCD28, 24 hours
Please respond with reported EC50 for every item in the list.

CC1(C)CC[C@H]2C[C@@H](Nc3nc(Nc4ccc(N5CC6(COC6)C5)c(OC(F)F)c4)ncc3F)CCN21 has a reported EC50 of 0.5 to 1 µM

CO[C@@H](C)COc1cc(F)c(Nc2ncc(Cl)c(N(C[C@H](C)OC)[C@@H]3C[C@@H]4CCCN4C(C)(C)C3)n2)cc1-n1nnn(C)c1=O has a reported EC50 of > 10 µM

CC1(C)C[C@H](Nc2nc(Nc3ccc(N4CCN(C5COC5)CC4)c(C#N)c3)ncc2F)C[C@@H]2CCCN21 has a reported EC50 of 0.1 to 0.5 µM

Cn1nnn(-c2cc(Nc3ncc(F)c(N[C@@H]4C[C@@H]5CCCN5C(C)(C)C4)n3)c(F)cc2OCC(O)C(F)(F)F)c1=O (stereo partly drawn) has a reported EC50 of 0.1 to 0.5 µM

COc1ccc(Nc2ncc(F)c(N[C@@H]3C[C@@H]4CCCN4C(C)(C)C3)n2)cc1-n1nnn(CC(C)(C)O)c1=O has a reported EC50 of 0.1 to 0.5 µM

Cc1nnnn1-c1cc(Nc2ncc(F)c(N[C@@H]3C[C@@H]4CCCN4C(C)(C)C3)n2)c(F)cc1O has a reported EC50 of 1 to 10 µM
